These measurements were taken from patent US11578079B2.

target: SUMO (Homo sapiens); assay: SUMO activity (Table I, biological activities); assay type: biochemical; set-up: key: + (less active); ++ (active); +++ (most active)
Measured Metric: SUMO

Some solved entries appear below for comparison.
- Compound: "COC(=O)C1=C(C(=O)NC2CCN(C(C)C)CC2)C2CCC1(C(Cc1ccccc1)Nc1ccccc1)O2 (stereo not drawn) [Compound 366]"
  Measurement: "+"
- Compound: "CCOC(=O)C1=C(C(=O)Nc2ccc(C)c(F)c2)C2C=CC1(C(Nc1cccc(OC)c1)c1ccc(CN3CCOCC3)cc1)O2 (stereo not drawn) [Compound 615]"
  Measurement: "+"
- Compound: "CCOC(=O)C1=C(C(=O)Nc2ccc(C)c(F)c2)C2C=CC1(C(Nc1ccc(C#N)cc1)c1ccc(CN3CCOCC3)cc1)O2 (stereo not drawn) [Compound 612]"
  Measurement: "+"
- Compound: "COC(=O)C1=C(C(=O)OC)C2(C(Cc3ccccc3)Nc3cc(F)cc(Cl)c3)C=CC1O2 (stereo not drawn) [Compound 209]"
  Measurement: "++"
- Compound: "COC(=O)C1=C(C(=O)OC)C2(C(Cc3ccc(C)cc3)Nc3cc(F)cc(F)c3)C=CC1O2 (stereo not drawn) [Compound 428]"
  Measurement: "++"

API: the following record is the query input.
Tell me its SUMO given CCN(CC)CCNC(=O)C1=C(C(=O)OC)C2(C(Cc3ccccc3)Nc3c(F)cccc3F)C=CC1O2 (stereo not drawn) [Compound 433] as the entry. ++

###

target: SUMO (Homo sapiens); test: SUMO activity (Table I, biological activities); format: biochemical; parameters: key: + (less active); ++ (active); +++ (most active)
Measured Metric: SUMO

- Compound: "COC(=O)C1=C(C(=O)NC2CCN(C)CC2)C2CCC1(C(Cc1ccccc1)Nc1ccccc1)O2 (stereo not shown)"
  Measurement: "+"
- Compound: "COC(=O)C1=C(C(=O)Nc2ccc(OC)cc2)C2C=CC1(C(Cc1ccccc1)Nc1cc(F)cc(F)c1)O2 (stereo not shown)"
  Measurement: "+++"
- Compound: "COC(=O)C1=C(C(=O)NC2CCN(C(=O)c3cccc(F)c3)CC2)C2C=CC1(C(Cc1ccccc1)Nc1ccccc1)O2 (stereo not shown)"
  Measurement: "++"
- Compound: "COC(=O)C1=C(C(=O)NC2CCN(C)CC2)C2C=CC1(C(Cc1ccc(C(F)(F)F)cc1)Nc1ccccc1)O2 (stereo not shown)"
  Measurement: "++"

###

target: SUMO (Homo sapiens, UniProt Q9UBT2); assay: SUMO activity (Table I, biological activities); assay type: biochemical; set-up: key: + (less active); ++ (active); +++ (most active)
Measured Metric: SUMO

Some solved entries appear below for comparison.
- Molecule: "COC(=O)C1=C(C(=O)NCCN(C)C)C2C=CC1(C(Cc1ccccc1)Nc1cccc(F)c1)O2 (centres unmarked)"
  SUMO: "++"
- Molecule: "COC(=O)C1=C(C(=O)NC2CCN(C)CC2)C2(C(Cc3ccccc3)Nc3cc(F)cc(F)c3)C=CC1O2 (centres unmarked)"
  SUMO: "++"
- Molecule: "COC(=O)C1=C(C(=O)NC2CCN(C)C2)C2C=CC1(C(Cc1ccccc1)Nc1ccc(F)cc1)O2 (centres unmarked)"
  SUMO: "+++"
- Molecule: "COC(=O)C1=C(C(=O)NCCN(C)C)C2C=CC1(C(Cc1ccccc1)Oc1ccccc1)O2 (centres unmarked)"
  SUMO: "++"
- Molecule: "COC(=O)C1=C(C(=O)NC2CCN(C)CC2)C2OC1(C(Cc1ccccc1)Oc1ccccc1)C1OC21 (centres unmarked)"
  SUMO: "++"

Tell me its SUMO given COC(=O)C1=C(C(=O)NC2CCN(C)CC2)C2C=CC1(C(Cc1ccccc1)Nc1cc(F)cc(Cl)c1)O2 (centres unmarked) as the entry. ++

Tell me its SUMO given COC(=O)C1=C(C(=O)NCc2ccccn2)C2C=CC1(C(Cc1ccccc1)Nc1ccccc1)O2 (centres unmarked) as the entry. +

Tell me its SUMO given CCOC(=O)C1=C(C(=O)OCC)C2(C(Nc3ccccc3)c3ccc(CN4CCOCC4)cc3)C=CC1O2 (centres unmarked) as the entry. ++

Tell me its SUMO given CNc1ccc(CC(Nc2ccccc2)C23C=CC(O2)C(C(=O)OC)=C3C(=O)OC)cc1 (centres unmarked) as the entry. ++

Tell me its SUMO given COC(=O)C1=C(C(=O)NNc2ccc(F)c(F)c2)C2(C(Cc3ccccc3)Nc3cc(F)cc(F)c3)C=CC1O2 (centres unmarked) as the entry. ++

###

Target: SUMO (Homo sapiens)
Sequence (Q9UBT2 1-640): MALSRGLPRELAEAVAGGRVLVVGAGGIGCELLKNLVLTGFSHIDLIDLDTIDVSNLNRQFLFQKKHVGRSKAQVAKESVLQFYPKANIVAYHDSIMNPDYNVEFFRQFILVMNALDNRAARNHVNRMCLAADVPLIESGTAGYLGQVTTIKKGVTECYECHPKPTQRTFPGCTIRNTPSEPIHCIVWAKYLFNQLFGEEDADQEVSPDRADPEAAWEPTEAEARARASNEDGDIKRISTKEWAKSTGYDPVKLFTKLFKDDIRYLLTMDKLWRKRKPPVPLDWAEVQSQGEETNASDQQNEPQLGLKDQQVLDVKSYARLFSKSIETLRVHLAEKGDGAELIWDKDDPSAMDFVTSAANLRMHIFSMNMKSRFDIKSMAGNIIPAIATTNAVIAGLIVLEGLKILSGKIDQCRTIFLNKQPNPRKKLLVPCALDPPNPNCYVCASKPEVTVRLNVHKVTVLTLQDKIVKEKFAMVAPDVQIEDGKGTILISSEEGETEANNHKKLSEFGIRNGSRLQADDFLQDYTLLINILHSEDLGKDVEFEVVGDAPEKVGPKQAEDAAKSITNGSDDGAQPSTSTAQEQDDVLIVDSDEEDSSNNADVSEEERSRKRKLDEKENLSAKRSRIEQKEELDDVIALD
Sequence (Q9UBE0 1-346 partner): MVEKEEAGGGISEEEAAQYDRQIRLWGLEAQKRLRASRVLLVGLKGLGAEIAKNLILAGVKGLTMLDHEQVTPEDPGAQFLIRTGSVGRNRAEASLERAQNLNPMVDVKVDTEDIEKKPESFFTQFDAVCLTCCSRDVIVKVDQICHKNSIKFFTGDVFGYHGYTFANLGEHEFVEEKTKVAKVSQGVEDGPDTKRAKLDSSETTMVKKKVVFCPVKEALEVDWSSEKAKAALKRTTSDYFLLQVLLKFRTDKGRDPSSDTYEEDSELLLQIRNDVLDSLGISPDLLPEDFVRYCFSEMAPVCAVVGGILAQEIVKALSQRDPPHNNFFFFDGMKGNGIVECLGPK
Assay: SUMO activity (Table I, biological activities)
Assay type: biochemical
Design: key: + (less active); ++ (active); +++ (most active)
Measured Metric: SUMO

Some solved entries appear below for comparison.
- Compound: "COC(=O)C1=C(C(=O)Nc2ccc(N3CCN(C)CC3)cc2)C2CCC1(C(Cc1ccccc1)Nc1ccccc1)O2 (stereo not drawn) [Compound 371]"
  Measurement: "+"
- Compound: "COC(=O)C1=C(C(=O)NNc2ccc(F)c(F)c2)C2C=CC1(C(Cc1ccccc1)Nc1cc(F)cc(F)c1)O2 (stereo not drawn) [Compound 314]"
  Measurement: "++"
- Compound: "COC(=O)C1=C(C(=O)OC)C2(C(Cc3ccccc3)Nc3c(F)cccc3F)C=CC1O2 (stereo not drawn) [Compound 228]"
  Measurement: "++"
- Compound: "COC(=O)C1=C(C(=O)OC)C2(C(CCCN3CCOCC3)Nc3ccccc3)C=CC1O2 (stereo not drawn) [Compound 193]"
  Measurement: "+"
- Compound: "COC(=O)C1=C(C(=O)NCCN(C)C)C2C=CC1(C(Cc1ccc(F)cc1)Nc1cc(F)cc(Cl)c1)O2 (stereo not drawn) [Compound 452]"
  Measurement: "++"
- Compound: "COC(=O)C1=C(C(=O)NCCNC(=O)OC(C)(C)C)C2C=CC1(C(Cc1ccccc1)Nc1ccc(F)cc1)O2 (stereo not drawn) [Compound 539]"
  Measurement: "++"

API: the following record is the query input.
Tell me its SUMO given COC(=O)C1=C(C(=O)Nc2c(C)cccc2C)C2C=CC1(C(Cc1ccccc1)Nc1ccccc1)O2 (stereo not drawn) [Compound 354] as the entry. +

###

biological target: SUMO (Homo sapiens); assay: SUMO activity (Table I, biological activities); format: biochemical; parameters: key: + (less active); ++ (active); +++ (most active)
Measured Metric: SUMO

- Molecule: "COC(=O)C1=C(C(=O)NCCN(C)C)C2C=CC1(C(Cc1ccccc1)Nc1c(F)cccc1F)O2 (stereo not drawn) [Compound 432]"
  Measurement: "++"
- Molecule: "COC(=O)C1=C(C(=O)Nc2ccc(OCCN3CCOCC3)cc2)C2C=CC1(C(Cc1ccccc1)Nc1ccccc1)O2 (stereo not drawn)"
  Measurement: "+++"
- Molecule: "CCCCC(Nc1cc(F)cc(F)c1)C12C=CC(O1)C(C(=O)OC)=C2C(=O)OC (stereo not drawn)"
  Measurement: "+++"
- Molecule: "COC(=O)C1=C(C(=O)OC)C2(C(Cc3ccccc3)Nc3ccc(F)cc3F)C=CC1O2 (stereo not drawn)"
  Measurement: "++"
- Molecule: "CC(C)NC(=O)C1=C(C(=O)NC(C)C)C2(C(Cc3ccccc3)Nc3ccccc3)C=CC1O2 (stereo not drawn)"
  Measurement: "+"
- Molecule: "COC(=O)C1=C(C(=O)NC2CCN(C)CC2)C2C=CC1(C(Cc1ccccc1)Oc1ccccc1)O2 (stereo not drawn)"
  Measurement: "++"

Recall the reported SUMO of CCN(CC)CCNC(=O)C1=C(C(=O)OC)C2(C(Cc3ccccc3)Nc3cccc(F)c3)C=CC1O2 (stereo not drawn) when tested on SUMO (Homo sapiens). ++

Recall the reported SUMO of CCOc1ccc(CC(Nc2ccccc2)C23C=CC(O2)C(C(=O)OC)=C3C(=O)OC)cc1 (stereo not drawn) when tested on SUMO (Homo sapiens). ++

Recall the reported SUMO of COC(=O)C1=C(C(=O)NCC2CCCO2)C2C=CC1(C(Cc1ccccc1)Nc1ccccc1)O2 (stereo not drawn) when tested on SUMO (Homo sapiens). ++
